Tested on: BALB/c mice
Procedure details: Toxicity and movement activity after i.v. injection
Cond: BALB/c mice, i.v. single dose 75 μl of 1 mM per mouse, movements within 30 minutes, observed up to one week
Peptide text beside a SMILES is read from it.
Property label: toxicity by mouse movements

Compound	Property label	Result
CC[C@H](C)[C@H](NC(=O)[C@H](CC(C)C)NC(=O)[C@H](CC(N)=O)NC(=O)[C@H](CC(C)C)NC(=O)[C@H](CC(C)C)NC(=O)[C@H](CCCCN)NC(=O)[C@H](CS)NC(=O)[C@H](CC(=O)O)NC(=O)[C@@H]1CCCN1C(=O)CNC(=O)[C@H](CCCCN)NC(=O)[C@H](CC(=O)O)NC(=O)CNC(=O)[C@H](CCCNC(=N)N)NC(=O)[C@@H](N)CS)C(=O)N[C@@H](CO)C(=O)N[C@@H](CCCCN)C(=O)N[C@@H](CC(C)C)C(=O)N[C@@H](Cc1ccccc1)C(=O)O [TU9:MTD] (H-CRGDKGPDCKLLNLISKLF-OH)	toxicity by mouse movements	no apparent toxicities
CC[C@H](C)[C@H](NC(=O)[C@H](CC(C)C)NC(=O)[C@H](CC(N)=O)NC(=O)[C@H](CC(C)C)NC(=O)[C@H](CC(C)C)NC(=O)[C@H](CCCCN)NC(=O)[C@H](CS)NC(=O)[C@H](CC(=O)O)NC(=O)[C@@H]1CCCN1C(=O)CNC(=O)[C@H](CCCCN)NC(=O)[C@H](CC(=O)O)NC(=O)[C@H](CCCNC(=N)N)NC(=O)CNC(=O)[C@@H](N)CS)C(=O)N[C@@H](CO)C(=O)N[C@@H](CCCCN)C(=O)N[C@@H](CC(C)C)C(=O)N[C@@H](Cc1ccccc1)C(=O)O [TU6:MTD] (H-CGRDKGPDCKLLNLISKLF-OH)	toxicity by mouse movements	no apparent toxicities
CC[C@H](C)[C@H](NC(=O)[C@H](CC(C)C)NC(=O)[C@H](CC(N)=O)NC(=O)[C@H](CC(C)C)NC(=O)[C@H](CC(C)C)NC(=O)[C@@H](N)CCCCN)C(=O)N[C@@H](CO)C(=O)N[C@@H](CCCCN)C(=O)N[C@@H](CC(C)C)C(=O)N[C@@H](Cc1ccccc1)C(=O)N[C@@H](CS)C(=O)NCC(=O)N[C@@H](CCCNC(=N)N)C(=O)N[C@@H](CC(=O)O)C(=O)N[C@@H](CCCCN)C(=O)NCC(=O)N1CCC[C@H]1C(=O)N[C@@H](CC(=O)O)C(=O)N[C@@H](CS)C(=O)O [TU7:MTD] (H-KLLNLISKLFCGRDKGPDC-OH)	toxicity by mouse movements	no apparent toxicities

* * *

Tested on: BALB/c mice
Procedure details: Toxicity and movement activity after i.v. injection
Cond: BALB/c mice, i.v. single dose 75 μl of 1 mM per mouse, movements within 30 minutes, observed up to one week
Ends that are not written are not given here.
Property label: toxicity by mouse movements

The following sequences have reported results that may help.
> print(dat)
                    residue.sequence               property.label                  result
1  KLLNLISKLFGGRLLRLLRLLR [TU16:MTD]  toxicity by mouse movements  no apparent toxicities
2       KLLNLISKLFGGCGKRK [TU20:MTD]  toxicity by mouse movements  no apparent toxicities
3       CGKRKGGKLLNLISKLF [TU19:MTD]  toxicity by mouse movements  no apparent toxicities
4   WDLAWMFRLPVGKLLNLISKLF [TU5:MTD]  toxicity by mouse movements  no apparent toxicities
5       KLLNLISKLFGGCRGDK [TU22:MTD]  toxicity by mouse movements  no apparent toxicities
6       WIFPWIQLKLLNLISKLF [TU4:MTD]  toxicity by mouse movements                   toxic

Let's switch to this sequence now.
// CRGDKGGKLLNLISKLF [TU21:MTD] : toxicity by mouse movements value = toxic

Origin of values: paper PMC5078025
